Values compiled from paper PMC10444810.

assay: icHep permeation assay (sinusoidal to bile side) to estimate drug biliary excretion clearance; details: human
propertyName: hepatocyte CLint at 1 μM (µL/min/1e6 cells)
Just the number in µL/min/1e6 cells, nothing appended.

CC[C@H]1OC(=O)[C@H](C)[C@@H](O[C@H]2C[C@@](C)(OC)[C@@H](O)[C@H](C)O2)[C@H](C)[C@@H](O[C@@H]2O[C@H](C)C[C@H](N(C)C)[C@H]2O)[C@](C)(O)C[C@@H](C)C(=O)[C@H](C)[C@@H](O)[C@]1(C)O [Erythromycin, erythromycin]; 0.732

hepatocyte CLint at 1 μM in this record for CC[C@]1(O)C[C@H]2CN(CCc3c([nH]c4ccccc34)[C@@](C(=O)OC)(c3cc4c(cc3OC)N(C=O)[C@H]3[C@@](O)(C(=O)OC)[C@H](OC(C)=O)[C@]5(CC)C=CCN6CC[C@]43[C@@H]65)C2)C1 [Vincristine, vincristine] : 0.173

// CN/C(=N/CCSCc1nc[nH]c1C)NC#N [Cimetidine, cimetidine] : hepatocyte CLint at 1 μM value = 0.869

Entry CN(Cc1cnc2nc(N)nc(N)c2n1)c1ccc(C(=O)N[C@@H](CCC(=O)O)C(=O)O)cc1 [Methotrexate, methotrexate] ; hepatocyte CLint at 1 μM = 1.11

* * *

assay: Reported human in vivo biliary excretion clearance and intrinsic clearance estimated from it (Eq. 4); details: estimated from observed CLbile with fp, Rb, Qh 1400 ml/min
Criterion: Observed in vivo CLbile, int meeting or surpassing 90 mL/min. Met: 1.0. Not met: 0.0.

The examples below pair each entry with its known result.
CC[C@H]1OC(=O)[C@H](C)[C@@H](O[C@H]2C[C@@](C)(OC)[C@@H](O)[C@H](C)O2)[C@H](C)[C@@H](O[C@@H]2O[C@H](C)C[C@H](N(C)C)[C@H]2O)[C@](C)(O)C[C@@H](C)C(=O)[C@H](C)[C@@H](O)[C@]1(C)O [Erythromycin, erythromycin]; 1.0
CC[C@]1(O)C[C@H]2CN(CCc3c([nH]c4ccccc34)[C@@](C(=O)OC)(c3cc4c(cc3OC)N(C=O)[C@H]3[C@@](O)(C(=O)OC)[C@H](OC(C)=O)[C@]5(CC)C=CCN6CC[C@]43[C@@H]65)C2)C1 [Vincristine, vincristine]; 0.0
CN/C(=N/CCSCc1nc[nH]c1C)NC#N [Cimetidine, cimetidine]; 0.0
CCOc1ccc2ccccc2c1C(=O)N[C@@H]1C(=O)N2[C@@H]1SC(C)(C)[C@@H]2C(=O)O [Nafcillin, nafcillin]; 1.0

Kindly consider the entry below.
## Task Determine whether measured Observed in vivo CLbile, int meets or exceeds 90 mL/min for C[C@H]1O[C@@H](O[C@H]2[C@@H](O)C[C@H](O[C@H]3[C@@H](O)C[C@H](O[C@H]4CC[C@@]5(C)[C@H](CC[C@@H]6[C@@H]5C[C@@H](O)[C@]5(C)[C@@H](C7=CC(=O)OC7)CC[C@]65O)C4)O[C@@H]3C)O[C@@H]2C)C[C@H](O)[C@@H]1O [Digoxin, digoxin]
## Result 1.0

* * *

Each entry below carries its reported Predicted in vivo CLbile, int, Mean.
tested on: sandwich-cultured PXB-cells; conditions: human, 10 min, 1 μM
The figure you give is taken to be in mL/min; do not add the unit.

Solved cases (2 shown):
CN/C(=N/CCSCc1nc[nH]c1C)NC#N [Cimetidine, cimetidine]; 126
CC[C@]1(O)C[C@H]2CN(CCc3c([nH]c4ccccc34)[C@@](C(=O)OC)(c3cc4c(cc3OC)N(C=O)[C@H]3[C@@](O)(C(=O)OC)[C@H](OC(C)=O)[C@]5(CC)C=CCN6CC[C@]43[C@@H]65)C2)C1 [Vincristine, vincristine]; 190

Value of Predicted in vivo CLbile, int, Mean reported for the molecule C[C@H]1O[C@@H](O[C@H]2[C@@H](O)C[C@H](O[C@H]3[C@@H](O)C[C@H](O[C@H]4CC[C@@]5(C)[C@H](CC[C@@H]6[C@@H]5C[C@@H](O)[C@]5(C)[C@@H](C7=CC(=O)OC7)CC[C@]65O)C4)O[C@@H]3C)O[C@@H]2C)C[C@H](O)[C@@H]1O [Digoxin, digoxin] is 439

Input CC[C@H]1OC(=O)[C@H](C)[C@@H](O[C@H]2C[C@@](C)(OC)[C@@H](O)[C@H](C)O2)[C@H](C)[C@@H](O[C@@H]2O[C@H](C)C[C@H](N(C)C)[C@H]2O)[C@](C)(O)C[C@@H](C)C(=O)[C@H](C)[C@@H](O)[C@]1(C)O [Erythromycin, erythromycin] . Output Predicted in vivo CLbile, int, Mean: 238

Form: molecule = CCOc1ccc2ccccc2c1C(=O)N[C@@H]1C(=O)N2[C@@H]1SC(C)(C)[C@@H]2C(=O)O [Nafcillin, nafcillin] ; Predicted in vivo CLbile, int, Mean = 340

So, CN(Cc1cnc2nc(N)nc(N)c2n1)c1ccc(C(=O)N[C@@H](CCC(=O)O)C(=O)O)cc1 [Methotrexate, methotrexate] ? Its Predicted in vivo CLbile, int, Mean was 126

* * *

tested on: sandwich-cultured PXB-cells; conditions: human, 20 min, 1 μM
Consider the following compounds and their measured Predicted in vivo CLbile, int, Mean readings.
Report the value in mL/min with no unit label.

CN(Cc1cnc2nc(N)nc(N)c2n1)c1ccc(C(=O)N[C@@H](CCC(=O)O)C(=O)O)cc1 [Methotrexate, methotrexate]; 172

Lab note: compound CCOc1ccc2ccccc2c1C(=O)N[C@@H]1C(=O)N2[C@@H]1SC(C)(C)[C@@H]2C(=O)O [Nafcillin, nafcillin] tested on sandwich-cultured PXB-cells; recorded Predicted in vivo CLbile, int, Mean was 608

Known value: sandwich-cultured PXB-cells Predicted in vivo CLbile, int, Mean of the compound CC[C@H]1OC(=O)[C@H](C)[C@@H](O[C@H]2C[C@@](C)(OC)[C@@H](O)[C@H](C)O2)[C@H](C)[C@@H](O[C@@H]2O[C@H](C)C[C@H](N(C)C)[C@H]2O)[C@](C)(O)C[C@@H](C)C(=O)[C@H](C)[C@@H](O)[C@]1(C)O [Erythromycin, erythromycin] equals 310

* * *

assay: Reported human in vivo biliary excretion clearance and intrinsic clearance estimated from it (Eq. 4); conditions: estimated from observed in vivo CLbile with fp, Rb and Qh 1400 ml/min
Rule: measured Observed in vivo CLbile, int below 90 mL/min gets 1; anything equal to or greater than 90 mL/min gets 0.

CC[C@H]1OC(=O)[C@H](C)[C@@H](O[C@H]2C[C@@](C)(OC)[C@@H](O)[C@H](C)O2)[C@H](C)[C@@H](O[C@@H]2O[C@H](C)C[C@H](N(C)C)[C@H]2O)[C@](C)(O)C[C@@H](C)C(=O)[C@H](C)[C@@H](O)[C@]1(C)O; 0
CCOc1ccc2ccccc2c1C(=O)N[C@@H]1C(=O)N2[C@@H]1SC(C)(C)[C@@H]2C(=O)O; 0
C[C@H]1O[C@@H](O[C@H]2[C@@H](O)C[C@H](O[C@H]3[C@@H](O)C[C@H](O[C@H]4CC[C@@]5(C)[C@H](CC[C@@H]6[C@@H]5C[C@@H](O)[C@]5(C)[C@@H](C7=CC(=O)OC7)CC[C@]65O)C4)O[C@@H]3C)O[C@@H]2C)C[C@H](O)[C@@H]1O; 0

## Task Quick check: Observed in vivo CLbile, int of `CC[C@]1(O)C[C@H]2CN(CCc3c([nH]c4ccccc34)[C@@](C(=O)OC)(c3cc4c(cc3OC)N(C=O)[C@H]3[C@@](O)(C(=O)OC)[C@H](OC(C)=O)[C@]5(CC)C=CCN6CC[C@]43[C@@H]65)C2)C1` under 90 mL/min?
## Result 1

## Task Check if Observed in vivo CLbile, int falls below 90 mL/min for `CN/C(=N/CCSCc1nc[nH]c1C)NC#N` .
## Result 1

* * *

tested on: sandwich-cultured PXB-cells; details: human, 20 min, 1 μM
propertyName: BEI (%) Mean
Report only the number, with the unit % understood.

See these solved cases before continuing.
CCOc1ccc2ccccc2c1C(=O)N[C@@H]1C(=O)N2[C@@H]1SC(C)(C)[C@@H]2C(=O)O [Nafcillin, nafcillin]; 70.9
CN/C(=N/CCSCc1nc[nH]c1C)NC#N [Cimetidine, cimetidine]; 19.6

Now for the compound whose BEI (%) Mean we want.
Summary for this compound, CC[C@]1(O)C[C@H]2CN(CCc3c([nH]c4ccccc34)[C@@](C(=O)OC)(c3cc4c(cc3OC)N(C=O)[C@H]3[C@@](O)(C(=O)OC)[C@H](OC(C)=O)[C@]5(CC)C=CCN6CC[C@]43[C@@H]65)C2)C1 [Vincristine, vincristine] : BEI (%) Mean is 40.4

* * *

system: sandwich-cultured PXB-cells; conditions: human, 2 min, 1 μM
Binary call on BEI (%) Mean with cut-off 50%: strictly below means class 1, and equality or higher means class 0.

Solved entries:
CC[C@H]1OC(=O)[C@H](C)[C@@H](O[C@H]2C[C@@](C)(OC)[C@@H](O)[C@H](C)O2)[C@H](C)[C@@H](O[C@@H]2O[C@H](C)C[C@H](N(C)C)[C@H]2O)[C@](C)(O)C[C@@H](C)C(=O)[C@H](C)[C@@H](O)[C@]1(C)O; class 1
C[C@H]1O[C@@H](O[C@H]2[C@@H](O)C[C@H](O[C@H]3[C@@H](O)C[C@H](O[C@H]4CC[C@@]5(C)[C@H](CC[C@@H]6[C@@H]5C[C@@H](O)[C@]5(C)[C@@H](C7=CC(=O)OC7)CC[C@]65O)C4)O[C@@H]3C)O[C@@H]2C)C[C@H](O)[C@@H]1O; class 1
CC[C@]1(O)C[C@H]2CN(CCc3c([nH]c4ccccc34)[C@@](C(=O)OC)(c3cc4c(cc3OC)N(C=O)[C@H]3[C@@](O)(C(=O)OC)[C@H](OC(C)=O)[C@]5(CC)C=CCN6CC[C@]43[C@@H]65)C2)C1; class 1
CN/C(=N/CCSCc1nc[nH]c1C)NC#N; class 1

## Task Below 50% on BEI (%) Mean? Entry `CCOc1ccc2ccccc2c1C(=O)N[C@@H]1C(=O)N2[C@@H]1SC(C)(C)[C@@H]2C(=O)O`
## Result class 0
